# target_desc: HCV NS5B polymerase (His-tagged, C-terminal 21 amino acid deleted NS5B, HC-J4) (Hepatitis C virus genotype 1b, UniProt O92972)
# Construct: The cDNA encoding NS5B amino acid 1-570 (HC-J4, genotype 1b); His tag (His6, from pET-21b) (C); made in house; host or cells: E. coli BL21 (DE3)
# Sequence (O92972 2417-3000, looked up, stated change not applied): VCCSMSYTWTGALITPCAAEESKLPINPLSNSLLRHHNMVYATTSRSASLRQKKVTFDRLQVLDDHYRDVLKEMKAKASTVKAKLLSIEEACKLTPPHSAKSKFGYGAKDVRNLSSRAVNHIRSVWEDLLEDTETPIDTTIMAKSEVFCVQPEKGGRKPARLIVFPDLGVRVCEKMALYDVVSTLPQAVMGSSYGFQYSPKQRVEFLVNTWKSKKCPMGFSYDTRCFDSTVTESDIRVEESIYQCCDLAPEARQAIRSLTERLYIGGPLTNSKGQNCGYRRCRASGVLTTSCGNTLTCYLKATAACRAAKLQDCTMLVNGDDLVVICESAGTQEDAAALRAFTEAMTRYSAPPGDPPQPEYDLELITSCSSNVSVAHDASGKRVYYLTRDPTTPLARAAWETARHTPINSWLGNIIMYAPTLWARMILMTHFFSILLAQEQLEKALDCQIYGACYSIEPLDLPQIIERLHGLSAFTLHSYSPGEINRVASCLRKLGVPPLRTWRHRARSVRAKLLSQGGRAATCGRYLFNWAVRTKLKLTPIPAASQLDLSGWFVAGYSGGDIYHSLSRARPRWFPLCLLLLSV
# assay_procedure: NS5b polymerase assay (biochemical RdRp assay, 3H-GTP incorporation, SPA beads)
# Design: species or system HCV genotype 1b
# condition_details: 200 nM enzyme, 3H-GTP incorporation, 2 h at 25° C.; read-out: NS5B Polymerase Assay IC50
quantity: IC50

// sample COc1ccc(C2CC(=O)C3=C(C2)Nc2ccccc2N(C(=O)C(F)(F)F)C3c2ccc(Cl)cc2)cc1OC (stereo not shown) [compound 226] , its IC50 was > 33.3 µM

// sample CCCCOc1ccc(C2CC(=O)C3=C(C2)Nc2ccccc2N(C(=O)C(F)(F)F)C3c2ccccc2)cc1 (stereo not shown) [compound 171] , its IC50 was > 42.7 µM

// sample CCOc1ccccc1C1C2=C(CC(c3ccc(OC)cc3)CC2=O)Nc2ccccc2N1C(=O)C(F)(F)F (mixture of isomers) [compound 216] , its IC50 was > 42.7 µM

// sample COc1ccc(C2C3=C(CC(c4ccc(C)cc4)CC3=O)Nc3ccccc3N2C(=O)C(F)(F)F)cc1 (mixture of isomers) [compound 194] , its IC50 was > 33.3 µM
